experimental-system: c-KIT T670I kinase (Homo sapiens, UniProt P10721, T670I)
Construct: The construct contains residues T544-V976 of cKit; GST (N); TEV cleavage site (internal)
Sequence (P10721 544-976 T670I): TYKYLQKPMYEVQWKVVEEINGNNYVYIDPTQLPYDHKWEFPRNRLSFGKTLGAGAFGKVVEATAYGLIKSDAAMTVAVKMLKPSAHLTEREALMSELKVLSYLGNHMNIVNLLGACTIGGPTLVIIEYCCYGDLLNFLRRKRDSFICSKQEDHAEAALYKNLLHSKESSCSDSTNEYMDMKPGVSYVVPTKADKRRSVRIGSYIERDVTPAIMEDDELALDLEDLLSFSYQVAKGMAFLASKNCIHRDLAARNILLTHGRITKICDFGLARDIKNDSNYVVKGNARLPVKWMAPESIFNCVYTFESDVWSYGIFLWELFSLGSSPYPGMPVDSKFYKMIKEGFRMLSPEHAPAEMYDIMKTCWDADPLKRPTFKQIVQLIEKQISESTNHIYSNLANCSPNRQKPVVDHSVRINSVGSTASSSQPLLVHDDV
assay-details: c-KIT T670I kinase assay
cond: enzymatic assay
pIC50: −log10 of the molar value.
measure-name: pIC50

Take a look at these entries with their results.
{"columns": ["smiles-representation", "pIC50"],
 "data": [
  ["CCn1c(=O)c(-c2cc(NC(=O)Nc3ccccc3)c(F)cc2I)cc2cnc(NC)cc21", "< 6.00"],
  ["CNc1cc2c(cn1)cc(-c1cc(NC(=O)Nc3cccc(F)c3)c(F)cc1F)c(=O)n2C(C)C", "6.00 to 7.00"],
  ["CCn1c(=O)c(-c2cc(NC(=O)Nc3cc(F)cc(F)c3)c(F)cc2C)cc2cnc(NC)cc21", "6.00 to 7.00"]
]}

Hi there! I need pIC50 for each item below, if you can.
1. CNc1cc2c(cn1)cc(-c1cc(NC(=O)Nc3csc4ccccc34)c(F)cc1C)c(=O)n2C
2. CCn1c(=O)c(-c2cc(NC(=O)Nc3csc4ccccc34)c(F)cc2Cl)cc2cnc(NC)cc21
3. CCn1c(=O)c(-c2cc(NC(=O)Nc3cccc(F)c3)c(F)cc2C)cc2cnc(NC(C)=O)cc21
4. CCn1c(=O)c(-c2cc(NC(=O)Nc3ccccc3)ccc2Cl)cc2cnc(NC)cc21
5. CCn1c(=O)c(-c2cc(NC(=O)Nc3cc(F)ccc3F)c(F)cc2Cl)cc2cnc(NC)cc21

Result string:
1: 7.00 to 8.00; 2: 7.00 to 8.00; 3: 7.00 to 8.00; 4: 6.00 to 7.00; 5: 7.00 to 8.00

Sourced from patent EP3722296B1
